- experimental.protocol: physchem
- condition.summary: simulated gastric fluid, pH 1.2
# log10 solubility thermodynamic at 4 h per record follows
Scale: log10; quantity: solubility thermodynamic at 4 h; unit before log: µM

Exam item: Which value of log10 solubility thermodynamic at 4 h has been reported for CC[C@H]1OC(=O)[C@H](C)[C@@H](O[C@H]2C[C@@](C)(OC)[C@@H](O)[C@H](C)O2)[C@H](C)[C@@H](O[C@@H]2O[C@H](C)C[C@H](N(C)C)[C@H]2O)[C@](C)(OC)C[C@@H](C)C(=O)[C@H](C)[C@@H](O)[C@]1(C)O in the records?
Marked response: -0.17

New cases:
Exam item: Which value of log10 solubility thermodynamic at 4 h has been reported for CCS(=O)(=O)CCn1c([N+](=O)[O-])cnc1C in the records?
Marked response: 2.21

Exam item: Which value of log10 solubility thermodynamic at 4 h has been reported for COc1ccc2cc3[n+](cc2c1OC)CCc1cc2c(cc1-3)OCO2.[Cl-] [BERBERINE CHLORIDE] in the records?
Marked response: 1.53

Exam item: Which value of log10 solubility thermodynamic at 4 h has been reported for CC[C@H]1OC(=O)[C@H](C)[C@@H](O[C@H]2C[C@@](C)(OC)[C@@H](O)[C@H](C)O2)[C@H](C)[C@@H](O[C@@H]2O[C@H](C)C[C@H](N(C)C)[C@H]2O)[C@](C)(O)C[C@@H](C)/C(=N\OCOCCOC)[C@H](C)[C@@H](O)[C@]1(C)O in the records?
Marked response: -0.22

Exam item: Which value of log10 solubility thermodynamic at 4 h has been reported for Clc1ccccc1C(c1ccccc1)(c1ccccc1)n1ccnc1 in the records?
Marked response: 0.76

Exam item: Which value of log10 solubility thermodynamic at 4 h has been reported for CC1(C)[C@@H](O)CC[C@]2(C)[C@H]3C(=O)C=C4[C@@H]5C[C@@](C)(C(=O)O)CC[C@]5(C)CC[C@@]4(C)[C@]3(C)CC[C@@H]12 in the records?
Marked response: 0.03
